- assay.system: Recombinant human TβRII-ED (residues 1-137) (human)
- Sequence (P37173 whole entry, the tested form may be a part): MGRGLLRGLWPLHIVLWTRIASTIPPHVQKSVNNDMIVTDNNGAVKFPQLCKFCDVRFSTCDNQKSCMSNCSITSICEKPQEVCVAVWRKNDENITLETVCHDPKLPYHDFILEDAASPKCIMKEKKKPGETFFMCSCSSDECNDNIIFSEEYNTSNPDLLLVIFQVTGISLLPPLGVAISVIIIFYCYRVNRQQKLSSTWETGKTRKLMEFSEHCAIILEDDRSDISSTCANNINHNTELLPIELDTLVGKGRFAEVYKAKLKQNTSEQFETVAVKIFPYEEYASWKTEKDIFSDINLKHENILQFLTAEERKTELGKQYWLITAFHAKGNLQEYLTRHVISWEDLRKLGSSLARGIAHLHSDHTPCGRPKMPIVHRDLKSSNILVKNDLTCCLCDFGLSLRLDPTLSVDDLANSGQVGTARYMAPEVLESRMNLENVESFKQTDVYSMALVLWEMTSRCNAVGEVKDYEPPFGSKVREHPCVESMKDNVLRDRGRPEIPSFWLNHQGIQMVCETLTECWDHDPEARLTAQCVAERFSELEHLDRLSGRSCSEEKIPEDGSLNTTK
- assay.procedure: ELISA
pKd: −log10 of the molar value.
endpoint: pKd

>>> print(df.to_string())
                                     binder  numeric_result
0  MHRMPSFLPTTL [Pep2 (synthetic peptide …)]            5.00
1  LTGKNFPMFHRN [Pep1 (synthetic peptide …)]            5.00
